# System Name: human Claudin-6 (CLDN6) (human) (UniProt P56747)
# Assay Text: FACS, 0.3 ug Ab, ARK2 cells (2nd Ab only 1351.21)
FACS fluorescence by entry:
Just the number.

AB4-7 (antibody, V domains shown, humanized) VH: QVQLVQSGAEVKKPGASVKMSCKASGYTFTSYTMHWIRQAPGQGQEWIGYINPSSTYTHYAQKFQGRATLTADKSTSTAYMELSSLRSEDTAVYYCSRGELGGFAYWGQGTLVTVSS VL: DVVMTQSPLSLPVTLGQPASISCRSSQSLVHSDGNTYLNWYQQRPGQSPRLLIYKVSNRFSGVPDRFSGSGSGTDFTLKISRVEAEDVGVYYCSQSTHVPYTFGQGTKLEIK; 2770
AB1-6 (antibody, V domains shown, humanized) VH: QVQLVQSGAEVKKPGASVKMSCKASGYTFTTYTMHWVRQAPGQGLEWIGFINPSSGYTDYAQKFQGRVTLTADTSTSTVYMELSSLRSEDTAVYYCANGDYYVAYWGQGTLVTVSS VL: DIQMTQSPSSLSASVGDRVTITCTASSSVSSTYFHWYQQKPGKAPKLLIYSTSNLASGVPSRFSGSGSGTDYTLTISSLQPEDFATYYCHQYHRSPLTFGQGTKLEIK; 2820

Consider the record given below.
Incoming: Data request, read-out FACS fluorescence, for AB1-3 (antibody, V domains shown, humanized) VH: QVQLVQSGAEVKKPGASVKVSCKASGYTFTTYTMHWVRQAPGQGLEWMGFINPSSGYTDYAQKFQGRVTMTADTSTSTVYMELSSLRSEDTAVYYCANGDYYVAYWGQGTLVTVSS VL: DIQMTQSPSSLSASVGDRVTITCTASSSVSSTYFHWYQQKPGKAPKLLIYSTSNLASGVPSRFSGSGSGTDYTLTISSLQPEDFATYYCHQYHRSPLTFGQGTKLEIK
Outgoing: 2830
